tested on: ncRNAs (SEQ ID NO 28-89); assay: ncRNA arrays of melanocytes, keratinocytes, normal skin, melanoma cell lines and patient samples; parameters: species or system human; settings: melanoma patient 24 sample compared to normal skin
Catalogue of substances with associated ncRNA array expression, patient 24
Enter a number only.

Illustrative cases are given below, each with its answer.
- Substance: "SEQ ID NO 31 (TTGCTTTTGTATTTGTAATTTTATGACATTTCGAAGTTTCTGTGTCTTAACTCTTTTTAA; listed as DNA, chemistry not given here; listed as Homo sapiens)"
  ncRNA array expression, patient 24: 1.373
- Substance: "SEQ ID NO 84 (TTATTAAAAGGACTGAGGATCATGTGTGTTGGTGTGTCCCGGAGTCTGCTCTAAGGTAAA; listed as DNA, chemistry not given here; listed as Homo sapiens)"
  ncRNA array expression, patient 24: 1.532
- Substance: "SEQ ID NO 36 (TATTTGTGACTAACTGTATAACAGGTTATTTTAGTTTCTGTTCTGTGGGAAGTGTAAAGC; listed as DNA, chemistry not given here; listed as Homo sapiens)"
  ncRNA array expression, patient 24: 3.815
- Substance: "SEQ ID NO 39 (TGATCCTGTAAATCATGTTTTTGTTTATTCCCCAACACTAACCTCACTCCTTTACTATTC; listed as DNA, chemistry not given here; listed as Homo sapiens)"
  ncRNA array expression, patient 24: "−1.204"

# ncRNA array expression, patient 24 (substance: SEQ ID NO 32 (ATTCAAATCTTCATGAATGGCATCACTTGCTTTAGACCCATTTTTTTTTTATTGGTCAGA; DNA, backbone and methylation of C not given here; listed as Homo sapiens) ) is 1.339

Field ncRNA array expression, patient 24 (entry SEQ ID NO 35 (GTTTCCATTGAAGAATATTACGCTCGGGGACAAGCCAGGTGCACGACCAAAAATTTAAAA; DNA, backbone and methylation of C not given here; listed as Homo sapiens) ) reads −2.783

Documented ncRNA array expression, patient 24 of SEQ ID NO 67 (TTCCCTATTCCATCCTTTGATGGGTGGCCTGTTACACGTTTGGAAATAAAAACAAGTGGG; listed as DNA, chemistry not given here; listed as Homo sapiens) : 1.045

SEQ ID NO 61 (CATACATTGCCCTCACTAATCAATGGACATTTCAGCATTTCATTACTAATTTTGAGAGAA; listed as DNA, chemistry not given here; listed as Homo sapiens) has a reported ncRNA array expression, patient 24 of 3.802

# ncRNA array expression, patient 24 of SEQ ID NO 28 (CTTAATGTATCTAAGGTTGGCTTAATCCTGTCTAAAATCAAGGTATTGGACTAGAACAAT; DNA, backbone and methylation of C not given here; listed as Homo sapiens) = 0.3368
